Collected apparent KD of MS2 coat protein values appear next to each entry.
- Tested on: MS2 coat protein
- method.summary: apparent KD of MS2 coat protein; higher = weaker reporter binding
- details: Eterna round: R107; input ligand: arginine 13.2 mM

# sequence.string, result.units, apparent KD of MS2 coat protein
rows = [
    ("AAUGUGAUAGUCGUACUCUCACACUGAGAAGGAGCGCGAAAGUUCGCAGGUAGGUCGCUCAGUUAUACAUGAGGAUCACCCAUGU [Edgeised]", "nM", 21.9),
    ("GCUGUGAAGUCGGCCGCCACUGGUUAGUUUUACCUCAUGUAACAUGAGGAUCACCCAUGUAAUUUCAGGACCGGGACAACAGCAA [JR_ExcTryptoB_Sub017]", "nM", 135),
    ("GGAUAGGACACGGCCGCCACUACCUAGGAUACUAGCAACAUUUGGGUGCACGAGGAUCACCCGUGUAGGACCGGGUGUCCUAUCG", "nM", 202),
    ("GCGCUCGACAGAAGGAGCGGCGACGUCGGUGUCAGGAGGCACAUGAGGAUCACCCAUGUCAGCCAGGUAGGUCGCUGUCGAUCGC [Arquce]", "nM", 22.8),
    ("GAGGGUGAAUCUCUAGUCCGUUUGACGGAUACCAGCGAGAGGUAUCGCCCUUGGCAGCCGACGACAUGAGGAUCACCCAUGUUAA [#07 Exclusion-TheophyllineA]", "nM", 22.2),
    ("ACGCGCAGCAGAAGGAGCGUCUUAAUUCUACAUGAGGAUCACCCAUGUUUACAUUGGAUAUGACAGGUAGGUCGCUGGUGUGCGA [#06 Same State - Arginine B]", "nM", 15.9),
    ("GUUGGUUUGCGAAGGAGCGGGUAUGUUGUCUACUUGAUCCUAACAUGAGGAUCACCCAUGUCCCAGGUAGGUCGCGCGGGCUUUG [12.aC]", "nM", 37),
    ("GGACUAACCAGAAGGAGCGACACGCAGAAACUGCAAAUUCCUCCACACGAGGAUCACCCGUGUCAGGUAGGUCGCUGGUUAGUCG", "nM", 27.8),
    ("AACAUGAGGAUCACCCAUGUCCUCGUGAUUCGAGGACCGGUACGGCCGCCACUCGGUCCUCGCGAGGAGGAGUCAAAGACUCCAA [Omei Trp A SS A v1]", "nM", 98),
    ("AUAUCUUCCACGGCCGCCACUGAAUGGUGCCCAAGGUCGAUCGCAGACAUGAGGAUCACCCAUGUCAGGACCGGGUGGUACUACG [theeternabot_exclusion_MS2_Trp_B_23]", "nM", 16.1),
    ("AGGAAACAACAUGAGGAUCACCCAUGUGAUACCAGUAUCAAAAGAUACCCUUGGCAGCACACAUGACAUGAGGAUCACCCAUGUA [AstrosSSTheA#2]", "nM", 33.2),
    ("AACAUGAGGAUCACCCAUGUGUCCUCGAAACGAGGACCGGUACGGCCGCCACUCGAAGCAUGUUGACGAAAAGUCAGCAUGCAAA [Mat - Exclusion - Trytophan A - D14]", "nM", 96.4),
]

###

- System: MS2 coat protein
- method.summary: apparent KD of MS2 coat protein, switch OFF state (with FMN for OFF switches, without FMN for ON switches); designed switch direction (-1 OFF switch, 1 ON switch): -1; higher = weaker reporter binding
- details: FMN input: 0 or 200 uM; Eterna round: R93 (includes R88 designs)
Collected apparent KD of MS2 coat protein values appear next to each entry.

# sequence.string, apparent KD of MS2 coat protein, nM
records = [
    ("CGUUGGCGAGGAUAUACAUGAGGAUCACCCAUGUGAGAGAAAAAAGUGAGAAAGAAAAGUAGAAGGCGCUGACC [salish99-ex3-13]", 162),
    ("GAAGAACAUGAGGAUCACCCAUGUCAGGAUAUACAGAAGGGAAUAAUAAAAUCUGGAAGUAGAAGGGACAAGAA [Ex 1 May 46]", 49.3),
    ("ACAAAGUGAGGAUAUGCUAUCGUACAAUAUAGUUAUCGUAUGCAGAAGGCACAUGAGGAUCACCCAUGUAAGAA [Ex 4 Tesla 9]", 36.7),
    ("GAGAAGUUAGGAUAUACAGCGGGUAGCCGCGGUGGCCUUAGACAUGAGGAUCACCCAUGUAGAAGGAACGAAAA [Tebied]", 12.6),
]
